System: FER
Details: concentration: 1 μM, replicates: in singlicate; n = 1
recorded-endpoint: %Inh (%)
Numbers only here, please. The scale is %.

IN: Provide the documented %Inh with FER as the system for FC(F)(F)c1ccc(-c2ncn(CCCN3CCOCC3)c2-c2ccncc2)cc1
OUT: 9

IN: For FER, provide %Inh of COc1cc(Nc2nccc(N3CCC(NC(=O)C(C)c4ccc(Cl)cc4)C3)n2)cc(OC)c1OC (centres unmarked) please.
OUT: 2

IN: For the record CCC(=O)c1c(-c2ccccc2)c2cc(Cl)ccc2c(=O)n1Cc1ccc(C(=O)O)cc1 , what value of %Inh is listed for FER?
OUT: 0

IN: So what %Inh did COc1ccc(Nc2nccc(N3CCC(NS(=O)(=O)c4ccc(NC(C)=O)cc4)C3)n2)cc1 (centres unmarked) get with FER?
OUT: 24

IN: Entry COc1cc2nccc(Nc3cccc(Oc4ccccc4)c3)c2cc1OC.Cl , system FER: what %Inh was measured?
OUT: 30

IN: # returns recorded %Inh (system: FER) for COc1cc2ncn(-c3cc(OCc4ccncc4Br)c(C(N)=O)s3)c2cc1OC;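 further: KINOMEscan kinase panel screen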
OUT: 2

IN: Give FER %Inh for COC(=O)c1c(-c2ccccc2)c2cc(Br)ccc2c(=O)n1Cc1ccc(S(C)(=O)=O)cc1
OUT: 0

IN: Hello, I am looking for reported %Inh with FER for COc1cccc(C2=C(Nc3cccc(C(=O)O)c3)C(=O)NC2=O)c1 . Could you help?
OUT: 40
